Biological target: T1, human ALK epitope peptide (amino acids 391-406 of the ALK protein) (human)
T1 construct: In the yeast two-hybrid screen it was a C-terminal fusion to LexA; also called Alk LBD peptide; Alk LBD
T1 peptide: GRIGRPDNPFRVALEY
Assay: ELISA; the coated antigen is not named on the sheet or in the legend, taken as the ALK epitope peptide
property-label: binding result

1) 2.11 (scFv, One of the seven improved scFvs (group m4); The full chain is assembled from ESBA521 with its VH CDR2 exchanged; also called scFv 2.11) scFv (VL-linker-VH): QSVLTQPPSVSAAPGQKVTISCSGSTSNIGDNYVSWYQQLPGTAPQLLIYDNTKRPSGIPDRFSGSKSGTSATLGITGLQTGDEADYYCATWDNDKWGVVFGGGTKLEVLGGGGGSGGGGSGGGGSSGGGSEVQLVESGGGLVQPGGSLRLSCAASGFTFSSYAMSWVRQAPGKGLEWVSAIRTDSKEQYYADSVKGRFTISRDNSKNTLYLQMNSLRAEDTAVYYCARDAWLDVLSDGFDYWGQGTLVTVSS; binds
2) 4.12 (scFv, One of the seven improved scFvs (group m4); The full chain is assembled from ESBA521 with its VH CDR2 exchanged) scFv (VL-linker-VH): QSVLTQPPSVSAAPGQKVTISCSGSTSNIGDNYVSWYQQLPGTAPQLLIYDNTKRPSGIPDRFSGSKSGTSATLGITGLQTGDEADYYCATWDNDKWGVVFGGGTKLEVLGGGGGSGGGGSGGGGSSGGGSEVQLVESGGGLVQPGGSLRLSCAASGFTFSSYAMSWVRQAPGKGLEWVSAINTRGQNEYYADSVKGRFTISRDNSKNTLYLQMNSLRAEDTAVYYCARDAWLDVLSDGFDYWGQGTLVTVSS; binds
3) 265.1 (scFv, One of the seven improved scFvs (group m4); The full chain is assembled from ESBA521 with its VH CDR2 exchanged) scFv (VL-linker-VH): QSVLTQPPSVSAAPGQKVTISCSGSTSNIGDNYVSWYQQLPGTAPQLLIYDNTKRPSGIPDRFSGSKSGTSATLGITGLQTGDEADYYCATWDNDKWGVVFGGGTKLEVLGGGGGSGGGGSGGGGSSGGGSEVQLVESGGGLVQPGGSLRLSCAASGFTFSSYAMSWVRQAPGKGLEWVSAINMKGNDRYYADSVKGRFTISRDNSKNTLYLQMNSLRAEDTAVYYCARDAWLDVLSDGFDYWGQGTLVTVSS; binds
